Source: PubChem BioAssay (NCI)

test system: COLO 205 colon; experiment: NCI tumour cell line growth inhibition, 48 h
Provide the recorded TGI for the entries that follow.
One number for each entry, in µM.

molecule	units	TGI
CCCCCCCCCCCCCCCCCCN(C)CC(COP(=O)([O-])OCC[N+](C)(C)C)OC (centres undefined)	µM	8.47
O=C1C(Cl)=C(Nc2ccc(S(=O)(=O)Nc3ccccn3)cc2)C(=O)c2ccccc21	µM	27.8
O=C1CCc2c(sc3[nH]c(=S)n(Cc4ccc(Cl)cc4)c(=O)c23)C1	µM	3.71

Kindly consider the entry below.
// returns reported TGI for input COc1cc(-c2nc(SCCC(C)C)nc(Nc3ccc(S(N)(=O)=O)cc3)c2C#N)cc(OC)c1OC
5.08

###

system: OVCAR-4 ovarian; experiment: NCI tumour cell line growth inhibition, 48 h
readout-name: TGI

Example entries and their recorded answers appear below.
molecule	TGI
Cc1cc(Cl)ccc1NC(=O)CC1SC(=Nc2ccccc2Cl)NC1=O (stereo not given)	> 100 µM
CCN1CCN(CC(=O)N2c3cccc4cccc(c34)N(C(=O)CN3CCN(CC)CC3)C2c2cn(-c3ccccc3)nc2-c2cccc([N+](=O)[O-])c2)CC1	3.71 µM
Cc1ccc(O)c(NC(=O)c2ccc(CNc3ccnc(C(F)(F)F)c3)cc2)c1	> 100 µM
CN1C(=O)C2C(C1=O)C1(O)c3ccccc3C2(N)c2ccccc21 (stereo not given)	> 100 µM
C[N+]1=C(/C=C\C=C\c2ccccc2)C(C)(C)c2ccccc21	13.8 µM

Could you report TGI for every entry in the following list?
1. Clc1ccc(C(n2cc(Br)cn2)n2cc(Br)cn2)cc1
2. Cc1ccc(S(=O)(=O)N2CCCSCC2)cc1
3. N#CC1(C#N)C(C#N)(C#N)C12CCCCCC2
4. Cn1c(-c2cccc([N+](=O)[O-])c2)[n+](C)c2ccccc21
5. CC1OC(n2cc(F)c(=O)[nH]c2=O)C=CC1=O (stereo not given)

26.4 µM
> 100 µM
30 µM
> 100 µM
33.6 µM

###

Provide the recorded TGI for the entries that follow.
tested on: SNB-75 CNS; experiment: NCI tumour cell line growth inhibition, 48 h

molecule	TGI
CC(=O)c1cc2ccccc2oc1=O	> 100 µM

Could you report TGI for every entry in the following list?
1. CC(C)=CC1=C2C3=C(C(=O)C4(O)Oc5c(C)c6c7c(c5OC24C)[C@@H](C)CC[C@@H]7[C@@H](C)C[C@H]6C=C(C)C)C(C)CCC3C(C)C1 (stereo not given in full)
2. CSc1nc(SC)c2c(CO)c(Br)n(Cc3ccccc3)c2n1
3. CC1(C)C2C=CC1C(=O)CC2 (stereo not given)
4. COc1cccc(NC(=O)/C(Cc2nc3ccccc3nc2C)=N/NC(=O)C[n+]2ccccc2)c1
5. Cn1cc(-c2ccc(-c3ccc(C4=NC5(CC5)C(=O)N4C[C@@H]4CCN(C(=O)C5CC5)C4)cc3)cc2)cn1

1: > 100 µM; 2: 29.9 µM; 3: > 100 µM; 4: > 100 µM; 5: > 100 µM

###

Provide the recorded TGI for the entries that follow.
system: HOP-62 NSCLC; assay: NCI tumour cell line growth inhibition, 48 h
Answers are plain numbers, in µM.

compound	TGI [µM]
O=[N+]([O-])c1ccc(N/N=C/c2ccc(OCCCCCCCCCCCO)cc2)c([N+](=O)[O-])c1	19.6

Could you report TGI for every entry in the following list?
1. CC(C)CC(NC(=O)OC(C)(C)C)C(=O)Nc1ccc(Nc2nc(F)nc(-c3c4ccccc4cn3C)n2)cc1 (stereo not given)
2. CCN(CC)c1ccc(N=Nc2ccc(-c3nc4ccc[n+](C)c4o3)cc2)cc1

42.6
29.9

###

tested on: SK-MEL-5 melanoma; assay: NCI tumour cell line growth inhibition, 48 h; in the data active = GI50 below about 0.43 µM; inactive = the rest
Use one of these outcomes when replying: active, inactive

molecule	group-label
O=C(OC[C@H]1O[C@H](OC(=O)c2cc(O)c(O)c(OC(=O)c3cc(O)c(O)c(O)c3)c2)[C@H](OC(=O)c2cc(O)c(O)c(OC(=O)c3cc(O)c(O)c(O)c3)c2)[C@@H](OC(=O)c2cc(O)c(O)c(OC(=O)c3cc(O)c(O)c(O)c3)c2)[C@@H]1OC(=O)c1cc(O)c(O)c(OC(=O)c2cc(O)c(O)c(O)c2)c1)c1cc(O)c(O)c(OC(=O)c2cc(O)c(O)c(O)c2)c1	inactive

What call does the record list for C=C1C(=O)O[C@H]2[C@H]1CC/C(Cn1cc(-c3ccccc3C(F)(F)F)nn1)=C\CC[C@@]1(C)O[C@@H]21 ?
inactive

What call does the record list for Cc1cc(N2CCOCC2)cc2[nH]c(-c3c(NC[C@@H](O)c4cccc(Cl)c4)cc[nH]c3=O)nc12 ?
inactive

What call does the record list for Cc1cnc(C(=O)NNc2nc3sc4c(c3c(=O)n2C)C(C)CCC4)cn1 (stereo not given) ?
active

What call does the record list for CCN(CC)c1ccc(C(=O)c2ccc(N(CC)CC)cc2)cc1 ?
active

###

system: KM12 colon; assay: NCI tumour cell line growth inhibition, 48 h
Provide the recorded TGI for the entries that follow.
One number for each entry, in µM.

compound	readout-value
COc1cccc(/C=N/C(/N=C/c2cccc(OC)c2O)c2cccc(OC)c2O)c1O	76.7
CN(Cc1cc(C(C)(C)C)cc(Br)c1O)Cc1cc(C(C)(C)C)cc(Br)c1O	12.9

Kindly consider the entry below.
// returns reported TGI for input CC(C)CC(NC(=O)OC(C)(C)C)C(=O)Nc1ccc(Nc2nc(F)nc(-c3c4ccccc4cn3C)n2)cc1 (configuration not stated)
42.3

###

Provide the recorded TGI for the entries that follow.
system: ACHN renal; assay: NCI tumour cell line growth inhibition, 48 h
Where a SMILES comes first, the peptide text is derived from it. [ ]: non-standard residue; d: D form. The star is where a group is joined. Phe(4-NO2) = N[CH](Cc1ccc([N+](=O)[O-])cc1)C(=O)O; Boc = CC(C)(C)OC(=O)*

compound	TGI
COc1cc(C2CC(c3ccc(Nc4ccnc5cc(Cl)ccc45)cc3)=NN2c2ccc(Cl)cc2)cc(OC)c1OC (stereo not drawn)	> 100 µM

Could you report TGI for every entry in the following list?
1. O=Cc1c(O)c(C(=O)Nc2ccc3[nH]c(=O)[nH]c3c2)cc2ccccc12
2. Cc1cccc(NC(=O)c2cccc([N+](=O)[O-])c2O)c1C
3. COC(=O)/C=C/c1cc2c(cc1-c1c(C(=O)O)cc(OC)c(OC)c1OC)OCO2

1: > 100 µM; 2: > 100 µM; 3: > 10 µM

Could you report TGI for every entry in the following list?
1. COI1NC(=O)c2ccccc21
2. C=C(Br)CNC(=O)CCC(=O)NCC(=C)Br
3. Cc1ccc(NC(=O)c2cc(S(=O)(=O)Nc3nc4ncccc4[nH]3)c(SSc3cc(Cl)c(C(=O)Nc4ccc(C)cc4)cc3S(=O)(=O)Nc3nc4ncccc4[nH]3)cc2Cl)cc1
4. O=C1c2ccccc2C(=O)N1CC(O)COc1cccc2ccccc12 (stereo not drawn)
5. CCOC(=O)CCC(NC(=O)c1ccc(OCc2ccc3nc(-c4ccccc4)c(Cl)nc3c2)cc1)C(=O)OCC (stereo not drawn)
6. COc1ccc2nc(-c3ccc(O)cc3)sc2c1

> 100 µM
> 100 µM
> 100 µM
> 100 µM
> 31.6 µM
32.5 µM

Could you report TGI for every entry in the following list?
1. Cc1ccc(S(=O)(=O)N2CCCSCC2)cc1
2. Cn1c(-c2cccc([N+](=O)[O-])c2)[n+](C)c2ccccc21
3. CC(=O)OCc1cc2ccccc2nc1C(Br)(Br)Br
4. CCCCCCCCCCCCCCCCCCN(C)CC(COP(=O)([O-])OCC[N+](C)(C)C)OC (stereo not drawn)

["> 100 µM", "> 100 µM", "27.3 µM", "48.8 µM"]

Could you report TGI for every entry in the following list?
1. Cn1c2ccccc2c(=O)c2cccc(C(=O)NC(CCC(N)=O)C(=O)O)c21 (stereo not drawn)
2. C=C1C2C[C@@H]3O[C@H]4C[C@H]5O[C@@]6(C[C@@H]7O[C@]8(C[C@H](C)[C@@H]9O[C@@H]%10CC(CO)O[C@@H]%10C[C@@H]9O8)C[C@H](C)[C@@H]7O6)C[C@H]5O[C@H]4[C@H](C)[C@H]3OC(=O)C[C@H]3CC[C@@H]4OC5[C@H]6O[C@]7(CC[C@H]8CC(=C)[C@H](CC[C@@H](C[C@H]1C)O2)O8)CC6O[C@@H]5[C@@H](O7)[C@H]4O3 (stereo partly drawn)

1. > 100 µM
2. > 1 µM

Could you report TGI for every entry in the following list?
1. CN(C)CCNC(=O)c1ccc(NC(=O)c2nc([N+](=O)[O-])cn2C)cc1
2. Cc1nc2c(=O)n(C)ncc2[nH]1
3. COc1cc(CNNC(N)=S)cc(OC)c1OC
4. CC(C)(C)c1cc(O)ccc1O
5. Cc1cc(C)c(-n2c(-c3ccc(Br)cc3)cs/c2=N\N=C2C=C(C(C)(C)C)C(=O)C(C(C)(C)C)=C2)c(C)c1
6. N#CC1CCCCCCCCCCC(=O)N(CCCl)C1=O (stereo not drawn)

1. > 100 µM
2. > 100 µM
3. > 100 µM
4. > 100 µM
5. > 100 µM
6. > 100 µM

Could you report TGI for every entry in the following list?
1. Cn1cc2ccccc2c1-c1nc(F)nc(OCC(=O)[C@H]2CCC3[C@@H]4CCC5=CC(=O)CC[C@]5(C)C4[C@@H](O)C[C@@]32C)n1 (stereo partly drawn)
2. CNC(=O)CCC(NC(=O)OC(C)(C)C)C(=O)NC(Cc1ccc([N+](=O)[O-])cc1)C(=O)NCC(=O)NC (stereo not drawn) (Boc-Glu(NHMe)-[Phe(4-NO2)]-Gly-NHMe; configuration not given here)
3. O=C(Nc1nc(C23CC4CC(CC(C4)C2)C3)cs1)c1cc2ccccc2oc1=O
4. CC12CCC(Br)C(C)(C)C1CC=C1C(=O)OCC1O2 (stereo not drawn)
5. NC(N)=NS(=O)(=O)c1ccc(NCCc2c3ccccc3nc3ccccc23)cc1
6. COC(=O)c1c2cccccc-2c(Cc2c3cccccc-3c(C(=O)OC)c2O)c1O
7. Cn1cc(C(=O)C[n+]2ccccc2)c2ccccc21

1: 32.6 µM; 2: > 100 µM; 3: > 100 µM; 4: 26.2 µM; 5: > 100 µM; 6: > 100 µM; 7: > 100 µM

Could you report TGI for every entry in the following list?
1. O=C1Oc2cc(O)cc(/C=C/c3ccc(O)cc3)c2[C@@]12c1c(O)cc(O)cc1OC2c1cccc(O)c1 (stereo partly drawn)
2. Cc1ccccc1S(=O)(=O)Nn1cnc2ccc(S(=O)(=O)Nc3ccc(Cl)cc3)cc2c1=O

["> 100 µM", "> 100 µM"]

Could you report TGI for every entry in the following list?
1. Cc1cc(Cl)ccc1NC(=O)CC1SC(=Nc2ccccc2Cl)NC1=O (stereo not drawn)
2. CCCCCCCc1cc2c3c(nc4ccccc42)C(=O)c2cccnc2-c3n1

> 100 µM
8.19 µM
